biological target: BCRP (Homo sapiens); construct: host or cells: MDCK (BCRP-MDCK); assay: Inhibition of BCRP-mediated efflux transport in BCRP-MDCK cells; assay type: in vitro ADME; settings: human, BCRP-MDCK cells, pH 7.4, at 300 μM
Sequence (Q9UNQ0 whole entry): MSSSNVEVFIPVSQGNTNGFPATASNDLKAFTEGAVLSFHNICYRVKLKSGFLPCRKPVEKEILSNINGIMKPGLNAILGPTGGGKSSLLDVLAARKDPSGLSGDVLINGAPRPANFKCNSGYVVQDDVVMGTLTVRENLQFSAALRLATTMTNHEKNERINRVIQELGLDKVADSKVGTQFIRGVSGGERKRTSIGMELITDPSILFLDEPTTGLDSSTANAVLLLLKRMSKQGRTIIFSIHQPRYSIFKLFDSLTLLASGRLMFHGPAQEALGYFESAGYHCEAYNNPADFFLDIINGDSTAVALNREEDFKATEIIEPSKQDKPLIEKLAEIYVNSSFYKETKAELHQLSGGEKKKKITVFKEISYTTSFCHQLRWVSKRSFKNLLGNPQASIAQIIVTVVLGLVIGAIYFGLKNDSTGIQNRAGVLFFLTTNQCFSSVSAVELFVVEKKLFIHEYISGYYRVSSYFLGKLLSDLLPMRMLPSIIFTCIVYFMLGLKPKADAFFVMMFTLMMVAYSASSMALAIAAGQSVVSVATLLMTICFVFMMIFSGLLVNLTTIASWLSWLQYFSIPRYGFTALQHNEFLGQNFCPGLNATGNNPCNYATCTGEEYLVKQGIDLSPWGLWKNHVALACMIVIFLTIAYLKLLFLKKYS
MEASUREMENT_NAME: inhibition at 300 µM (%)
Kindly provide the numeric value in % only, without the unit symbol.

query: Consider the compound shown here: NC[C@H]1OB(O)c2c(OCCCO)cccc21 [EBO, Epetraborole] What is its recorded inhibition at 300 µM?
result: 13

###

So I've got a bunch of molecules here, and I need their solubility values.
experiment: Solubility in transport buffer; assay type: physicochemical; conditions: aqueous buffer; transport buffer pH 8.5; read-out: Soluble up to
Answers without a unit are incomplete; give the number and then its unit.

query: Consider the molecule shown here: NC[C@H]1OB(O)c2c(OCCC(=O)O)cccc21 What is its recorded solubility?
result: 250 µM

query: Consider the molecule shown here: NC[C@H]1OB(O)c2c(OCCCO)cccc21 What is its recorded solubility?
result: 100 µM

###

test system: CYP3A4; test: CYP inhibition (direct and metabolism-dependent) in human hepatic microsomes; type: in vitro ADME; conditions: human, human hepatic (liver) microsomes, pH 7.4, probe testosterone (6β-hydroxylation); CYP3A4 (Testosterone); read-out: as an Inhibitor IC50
MEASUREMENT_NAME: IC50

query: Consider the compound shown here: NC[C@H]1OB(O)c2c(OCCCO)cccc21 What is its recorded IC50?
result: > 100 µM

###

biological target: BCRP (Homo sapiens); construct: host or cells: MDCK (BCRP-MDCK); test: Substrate potential for BCRP, bidirectional permeability in BCRP-MDCK; assay type: in vitro ADME; conditions: human; BCRP-MDCK; read-out: Efflux ratio of control compound
MEASUREMENT_NAME: efflux ratio
Give a plain numeric answer without units written out.

query: Consider the compound shown here: Nc1nc(Cl)nc2c1ncn2[C@H]1C[C@H](O)[C@@H](CO)O1 [cladribine, reference compound] What is its recorded efflux ratio?
result: 288

###

target: OATP1B3 (Homo sapiens); experiment: Uptake transporter inhibition in transfected HEK 293 or MDCK cells; details: read-out: as an Inhibitor, IC50
Sequence (Q9NPD5 whole entry): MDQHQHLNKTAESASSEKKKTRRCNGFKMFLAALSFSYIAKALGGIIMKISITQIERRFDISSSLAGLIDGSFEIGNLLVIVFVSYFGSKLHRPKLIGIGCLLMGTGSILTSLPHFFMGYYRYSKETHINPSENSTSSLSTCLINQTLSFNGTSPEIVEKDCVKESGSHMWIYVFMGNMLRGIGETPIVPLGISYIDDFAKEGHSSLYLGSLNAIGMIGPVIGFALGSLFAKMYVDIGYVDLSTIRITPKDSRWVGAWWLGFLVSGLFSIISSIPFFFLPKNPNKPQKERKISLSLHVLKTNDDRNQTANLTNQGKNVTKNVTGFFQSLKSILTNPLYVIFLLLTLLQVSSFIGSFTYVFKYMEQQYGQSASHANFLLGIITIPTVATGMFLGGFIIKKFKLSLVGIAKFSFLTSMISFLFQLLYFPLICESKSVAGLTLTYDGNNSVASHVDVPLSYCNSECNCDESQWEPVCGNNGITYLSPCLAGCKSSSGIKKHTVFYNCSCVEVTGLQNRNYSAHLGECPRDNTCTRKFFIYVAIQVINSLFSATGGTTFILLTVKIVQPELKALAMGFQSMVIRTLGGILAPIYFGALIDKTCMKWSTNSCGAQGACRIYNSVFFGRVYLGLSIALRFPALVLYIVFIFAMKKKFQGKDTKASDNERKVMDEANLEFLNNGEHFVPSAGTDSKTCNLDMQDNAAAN
MEASUREMENT_NAME: IC50

query: Form field: IC50 recorded for NC[C@H]1OB(O)c2c(OCCC(=O)O)cccc21 [M3] with OATP1B3 (Homo sapiens) (enter value)
result: > 250 µM

###

biological target: OCT2 (Homo sapiens, UniProt O15244); construct: host or cells: MDCK; assay: Uptake transporter inhibition in transfected HEK 293 or MDCK cells; type: in vitro ADME; details: human, probe metformin, metformin transport, at 1000 µM (maximum tested)
Sequence (O15244 whole entry): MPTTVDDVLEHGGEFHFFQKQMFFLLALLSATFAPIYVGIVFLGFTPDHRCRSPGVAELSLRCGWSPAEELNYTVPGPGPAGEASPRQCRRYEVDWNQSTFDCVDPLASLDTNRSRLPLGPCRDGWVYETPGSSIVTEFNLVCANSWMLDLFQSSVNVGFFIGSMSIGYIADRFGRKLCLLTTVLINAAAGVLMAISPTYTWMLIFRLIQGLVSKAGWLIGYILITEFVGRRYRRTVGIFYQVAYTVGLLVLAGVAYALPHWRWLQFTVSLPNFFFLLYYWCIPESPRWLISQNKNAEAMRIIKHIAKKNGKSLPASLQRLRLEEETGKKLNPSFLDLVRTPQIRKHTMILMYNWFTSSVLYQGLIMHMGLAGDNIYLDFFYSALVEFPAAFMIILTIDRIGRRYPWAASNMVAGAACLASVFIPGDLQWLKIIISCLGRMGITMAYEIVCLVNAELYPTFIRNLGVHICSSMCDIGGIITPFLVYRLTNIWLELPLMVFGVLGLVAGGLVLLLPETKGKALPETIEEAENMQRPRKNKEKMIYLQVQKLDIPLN
MEASUREMENT_NAME: inhibition at 1000 µM
Answers without a unit are incomplete; give the number and then its unit.

query: Consider the compound shown here: NC[C@H]1OB(O)c2c(OCCCO)cccc21 What is its recorded inhibition at 1000 µM?
result: 20%

###

molecular target: CYP2C9 (Homo sapiens, UniProt P11712); construct: tissue CellzDirect; XenoTech LLC; host or cells: pooled human liver microsomes; assay: CYP inhibition (direct and metabolism-dependent) in human hepatic microsomes; type: in vitro ADME; conditions: read-out: as an Inhibitor IC50
Sequence (P11712 whole entry): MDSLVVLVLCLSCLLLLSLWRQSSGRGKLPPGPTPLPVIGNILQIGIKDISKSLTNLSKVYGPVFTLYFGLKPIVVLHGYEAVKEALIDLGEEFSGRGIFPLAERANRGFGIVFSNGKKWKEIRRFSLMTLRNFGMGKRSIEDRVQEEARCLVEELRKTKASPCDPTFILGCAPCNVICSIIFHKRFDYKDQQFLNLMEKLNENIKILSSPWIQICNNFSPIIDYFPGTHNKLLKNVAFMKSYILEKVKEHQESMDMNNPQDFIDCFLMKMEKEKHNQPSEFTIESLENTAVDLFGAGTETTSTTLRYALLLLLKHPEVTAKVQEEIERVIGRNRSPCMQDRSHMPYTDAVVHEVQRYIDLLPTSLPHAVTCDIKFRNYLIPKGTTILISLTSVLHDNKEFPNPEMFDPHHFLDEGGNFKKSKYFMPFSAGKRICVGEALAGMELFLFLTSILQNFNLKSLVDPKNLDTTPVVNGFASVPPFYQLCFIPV
MEASUREMENT_NAME: IC50

query: Consider the compound shown here: NC[C@H]1OB(O)c2c(OCCC(=O)O)cccc21 [M3] What is its recorded IC50?
result: > 1000 µM

query: Consider the compound shown here: NC[C@H]1OB(O)c2c(OCCCO)cccc21 [EBO, Epetraborole] What is its recorded IC50?
result: > 100 µM
